# Assay Protocol: Diclofenac plasma pharmacokinetics in chickens after IV dosing (HPLC, non-compartmental)
# Test Context: in vivo, iv, clearance, geometric mean, test group (CYP inhibitor), all birds
Readout: clearance (mL/min/kg)
All answers are understood in mL/min/kg, so give the number only.

Ask | Dear colleague, please send me the reported clearance for O=C(O)Cc1ccccc1Nc1c(Cl)cccc1Cl [diclofenac, diclofenac sodium] when you can.
Reply | 25.3

* * *

# Assay Protocol: Diclofenac plasma pharmacokinetics in chickens after IV dosing (HPLC, non-compartmental)
# Test Context: in vivo, iv, Cmax, geometric mean, control group, all birds
Readout: Cmax
State the value with its unit after it.

Ask | Dear colleague, please send me the reported Cmax for O=C(O)Cc1ccccc1Nc1c(Cl)cccc1Cl [diclofenac, diclofenac sodium] when you can.
Reply | 410 ng/mL
